Task for the reader: assign each of the following molecules its reported IC50.
- tgt: full-length human Mineralocorticoid Receptor (MR) (Homo sapiens)
- Construct: full-length human Mineralocorticoid Receptor (MR); host or cells: PathHunter CHO-K1 cells
- Sequence (P08235 whole entry): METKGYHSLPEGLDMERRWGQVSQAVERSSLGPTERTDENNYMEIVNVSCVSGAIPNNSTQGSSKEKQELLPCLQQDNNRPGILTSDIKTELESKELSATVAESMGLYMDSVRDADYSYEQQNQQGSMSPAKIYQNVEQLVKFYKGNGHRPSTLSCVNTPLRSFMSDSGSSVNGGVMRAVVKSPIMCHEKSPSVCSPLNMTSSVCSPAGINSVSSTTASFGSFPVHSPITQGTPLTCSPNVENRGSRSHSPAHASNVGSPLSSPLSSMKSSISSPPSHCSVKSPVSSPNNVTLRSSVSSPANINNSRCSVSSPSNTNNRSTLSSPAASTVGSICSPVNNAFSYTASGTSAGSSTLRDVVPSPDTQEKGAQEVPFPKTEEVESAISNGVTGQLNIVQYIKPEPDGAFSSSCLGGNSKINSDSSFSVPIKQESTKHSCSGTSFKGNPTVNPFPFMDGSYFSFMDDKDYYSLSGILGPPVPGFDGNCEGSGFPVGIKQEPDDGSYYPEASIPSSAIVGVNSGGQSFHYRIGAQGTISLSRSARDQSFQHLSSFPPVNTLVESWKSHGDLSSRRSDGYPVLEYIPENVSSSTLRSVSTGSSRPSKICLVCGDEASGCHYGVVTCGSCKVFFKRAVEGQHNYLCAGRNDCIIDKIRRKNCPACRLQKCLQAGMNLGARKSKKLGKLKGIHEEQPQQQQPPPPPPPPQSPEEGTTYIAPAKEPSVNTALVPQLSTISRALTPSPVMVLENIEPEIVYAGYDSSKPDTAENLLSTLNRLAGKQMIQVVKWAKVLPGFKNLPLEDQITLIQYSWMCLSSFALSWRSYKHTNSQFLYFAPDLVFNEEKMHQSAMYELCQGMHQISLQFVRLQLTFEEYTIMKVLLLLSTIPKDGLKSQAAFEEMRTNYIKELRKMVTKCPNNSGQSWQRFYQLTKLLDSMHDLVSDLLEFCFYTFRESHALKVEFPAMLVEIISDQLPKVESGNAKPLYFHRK
- method: human MR NH Pro assay (PathHunter Protein:Protein interaction assay, MR antagonism)
- Type: cell-based
- condition-details: PathHunter CHO-K1 cells that overexpress human MR; aldosterone (0.3 nM), 6 hours at 37° C.; antagonist mode; read-out: IC50 rating

Answered examples (4):
C[C@H](c1ccccc1)N1C(=O)N[C@](Cc2ccccc2)(c2nc3ccc(Cl)cc3[nH]2)C1=O (single isomer, unassigned) | 500 to 2000 nM
C[C@H](C1CCCCC1)N1C(=O)O[C@](Cc2ccc(F)cc2)(c2nc3ccc(C#N)cc3[nH]2)C1=O | 100 to 500 nM
C[C@H](c1ccc(F)cc1)N1C(=O)O[C@](Cc2ccccc2)(c2nc3c(Cl)cccc3[nH]2)C1=O | 100 to 500 nM
C[C@H](c1ccc(F)cc1)N1C(=O)O[C@](Cc2ccccc2)(c2nc3c(-c4cnn(C)c4)cccc3[nH]2)C1=O | 100 to 500 nM

Alright, here's another molecule for you.
Please indicate recorded IC50 of C[C@H](c1ccc(F)cc1)N1C(=O)O[C@](Cc2ccccc2)(c2nc3cc(-n4cnnn4)ccc3[nH]2)C1=O measured with full-length human Mineralocorticoid Receptor (MR) (Homo sapiens).
100 to 500 nM
